# SUBJECT OF TEST: endogenous PTHR in ROS 17/2.8 cells (Rattus norvegicus, UniProt P25961)
# Construct: ROS 17/2.8 cells are rat osteosarcoma cells and express the endogenous PTHR; endogenous in cells; host or cells: ROS 17/2.8 rat osteosarcoma cells
# Sequence (P25961 27-591): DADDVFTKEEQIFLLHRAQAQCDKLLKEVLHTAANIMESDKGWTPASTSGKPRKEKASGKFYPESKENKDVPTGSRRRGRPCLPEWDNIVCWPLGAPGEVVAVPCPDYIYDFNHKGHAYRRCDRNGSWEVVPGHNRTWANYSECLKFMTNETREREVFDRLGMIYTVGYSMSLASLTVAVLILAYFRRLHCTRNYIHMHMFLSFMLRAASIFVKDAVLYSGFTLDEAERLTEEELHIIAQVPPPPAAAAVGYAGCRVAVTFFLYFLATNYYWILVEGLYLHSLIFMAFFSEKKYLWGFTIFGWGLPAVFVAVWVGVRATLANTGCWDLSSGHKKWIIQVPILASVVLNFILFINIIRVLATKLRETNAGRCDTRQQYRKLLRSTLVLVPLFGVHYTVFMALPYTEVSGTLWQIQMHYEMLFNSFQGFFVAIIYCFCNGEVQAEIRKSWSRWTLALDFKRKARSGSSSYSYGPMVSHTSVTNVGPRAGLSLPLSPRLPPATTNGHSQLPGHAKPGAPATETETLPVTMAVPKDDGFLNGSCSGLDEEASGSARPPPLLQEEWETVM
# PROCEDURE DETAILS: Competition binding in intact ROS 17/2.8 cells with 125I-PTH(1-34) tracer
# CONDITION NOTES: 125I-[Nle8,21,Tyr34]rPTH(1-34)NH2 tracer
pIC50: −log10 of the molar value.
MEASURE NAME: pIC50

>>> reported("SVSEIQLMHNLGKHLNSMEEVEWLRKKLQDV [Arg^20→Glu]")
5.24

* * *

# SUBJECT OF TEST: endogenous PTHR in ROS 17/2.8 cells (Rattus norvegicus, UniProt P25961)
# Construct: ROS 17/2.8 cells are rat osteosarcoma cells and express the endogenous PTHR; endogenous in cells; host or cells: ROS 17/2.8 rat osteosarcoma cells
# PROCEDURE DETAILS: Stimulation of intracellular cAMP in ROS 17/2.8 cells
# Assay type: cell-based
pEC50: −log10 of the molar value.
MEASURE NAME: pEC50

>>> reported("SVSEIQLMHNLGKHLNSMEEVEWLRKKLQDV [Arg^20→Glu]")
7.23

* * *

# SUBJECT OF TEST: PTHR-delNt (Homo sapiens, UniProt Q03431, DEL24-181)
# Construct: expressed in transfected cells; host or cells: COS-7 cells, transient co-transfection; membranes prepared
# Sequence (Q03431 with tags, fused parts or gaps DEL24-181): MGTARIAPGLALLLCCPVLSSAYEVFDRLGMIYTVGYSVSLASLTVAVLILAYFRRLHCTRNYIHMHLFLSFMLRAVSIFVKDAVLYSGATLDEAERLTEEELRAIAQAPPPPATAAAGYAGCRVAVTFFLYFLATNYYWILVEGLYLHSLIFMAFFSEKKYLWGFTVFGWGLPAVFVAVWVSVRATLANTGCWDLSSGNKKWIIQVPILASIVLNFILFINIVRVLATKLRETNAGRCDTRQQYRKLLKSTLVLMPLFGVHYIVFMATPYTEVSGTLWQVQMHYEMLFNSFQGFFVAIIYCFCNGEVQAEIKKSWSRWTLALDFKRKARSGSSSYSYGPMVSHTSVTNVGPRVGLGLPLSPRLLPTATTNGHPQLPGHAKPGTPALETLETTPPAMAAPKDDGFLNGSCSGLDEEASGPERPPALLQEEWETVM
# PROCEDURE DETAILS: Competition binding in COS-7 cell membranes with 125I-[Aib1,3,M]PTH(1-15)NH2 tracer
# CONDITION NOTES: PTHR-delNT (COS-7) IC50, [Ala1,Arg19]hPTH(1-31)NH2 analogs; COS-7 membranes cotransfected with negative-dominant Gαs
pIC50: −log10 of the molar value. Where no end group is shown, it is not given here.
MEASURE NAME: pIC50

>>> reported("AVSEIQLMHNLGKHLNSMRREEWLRKKLQDV-NH2 [Val^21→Glu]")
5.79

* * *

# SUBJECT OF TEST: PTHR-delNt (Homo sapiens, UniProt Q03431, DEL24-181)
# Construct: expressed in transfected cells; host or cells: COS-7 cells, transient co-transfection; membranes prepared
# PROCEDURE DETAILS: Competition binding in COS-7 cell membranes with 125I-[Aib1,3,M]PTH(1-15)NH2 tracer
# CONDITION NOTES: COS-7 membranes; versus the respective parent peptide
# Method: PTHR-delNt is a derivative of the human PTHR that is deleted for most (Ala^24-Arg^181) of the amino-terminal extracellular domain (Shimizu, M., et al. (2001) Endocrinology 142:3068-3074). This PTHR construct was expressed in COS-7 cells via transient DNA transfection. […] Receptor binding—Binding to the wild-type human PTHR in intact HKRK-B7 cells and ROS 17/2.8 cells was assessed using ^125I-PTH(1-34) as a tracer radioligand, as described (Shimizu, M., (2001) Endocrinology 142:3068-3074). […]
Where no end group is shown, it is not given here.
MEASURE NAME: reduction (alteration) of binding affinity for PTHR-delNt relative to parent peptide

>>> reported("AVSEIQLMHNLGKHLNSMRRVEELRKKLQDV-NH2 [Trp^23→Glu]")
"less than three-fold"
>>> reported("SVSEIQLMHNLGKHLNSMERVEALRKKLQDV-NH2 [Trp^23→Ala]")
"only two-fold"
>>> reported("AVSEIQLMHNLGKHLNSMRRVEWLEKKLQDV-NH2 [Arg^25→Glu]")
"about four-fold"
>>> reported("AVSEIQLMHNLGKHLNSMRREEWLRKKLQDV-NH2 [Val^21→Glu]")
"about four-fold"
>>> reported("SVSEIQLMHNLGKHLNSMERVEWARKKLQDV-NH2 [Leu^24→Ala]")
"only two-fold"
>>> reported("SVSEIQLMHNLGKHLNSMEEVEWLRKKLQDV [Arg^20→Glu]")
"less than three-fold"
>>> reported("AVSEIQLMHNLGKHLNSMRRVEWERKKLQDV-NH2 [Leu^24→Glu]")
"less than three-fold"
>>> reported("AVSEIQLMHNLGKHLNSMRRVEWLRKKEQDV-NH2 [Leu^28→Glu]")
"less than three-fold"

* * *

Known CD helical residues of a selection of substances
# PROCEDURE DETAILS: Circular dichroism spectroscopy, helical residues per peptide chain
# Type: physicochemical
# CONDITION NOTES: hPTH(1-31)NH2 analogs; calculated from [θ]222
# Method: Circular Dichroism—CD spectra were obtained on a JASCO J-600 spectropolarimeter at 20° C. Four spectra were averaged and the data smoothed by the JASCO software. The instrument was calibrated with ammonium (+)-10-camphorsulfonate. […] Data are expressed as the number of helical residues per peptide chain, as calculated from −[θ]222×30/28,000, where [θ]222 is the mean residue elipticity ([θ]) at 222 nm, as was described previously (Barbier, J. R., et al. (2005) J Biol Chem. 280:23771-23777).
Where no end group is shown, it is not given here.
MEASURE NAME: CD helical residues

>>> reported("SVSEIQLMHNLGKHLNSMERVEWLRKKLQAV-NH2 [Asp^30→Ala]")
10
>>> reported("SVSEIQLMHNLGKHLNSMERAEWLRKKLQDV-NH2 [Val^21→Ala]")
10
>>> reported("SVSEIQLMHNLGKHLNSMERVEWLRKALQDV-NH2 [Lys^27→Ala]")
9
>>> reported("SVSEIQLMHNLGKHLNSMEEVEWLRKKLQDV [Arg^20→Glu]")
7
>>> reported("SVSEIQLMHNLGKHLNSMERVAWLRKKLQDV-NH2 [Glu^22→Ala]")
9

* * *

# SUBJECT OF TEST: PTHR-delNt (Homo sapiens, UniProt Q03431, DEL24-181)
# Construct: expressed in transfected cells; host or cells: COS-7 cells, transient co-transfection; membranes prepared
# PROCEDURE DETAILS: Competition binding in COS-7 cell membranes with 125I-[Aib1,3,M]PTH(1-15)NH2 tracer
# CONDITION NOTES: hPTH(1-31)NH2 analogs; COS-7 membranes cotransfected with negative-dominant Gαs; read-out: PTHR-delNT (COS-7) IC50
pIC50: −log10 of the molar value. Where no end group is shown, it is not given here.
# pIC50 per entry
MEASURE NAME: pIC50

>>> reported("SVSEIQLMHNLGKHLNSMERVEWLRKKLQAV-NH2 [Asp^30→Ala]")
5.81
>>> reported("SVSEIQLMHNLGKHLNSMERAEWLRKKLQDV-NH2 [Val^21→Ala]")
5.25
>>> reported("SVSEIQLMHNLGKHLNSMERVEWLRKALQDV-NH2 [Lys^27→Ala]")
5.14

* * *

# SUBJECT OF TEST: wild-type human PTHR (Homo sapiens)
# Construct: expressed in transfected cells
# Sequence (Q03431 27-593): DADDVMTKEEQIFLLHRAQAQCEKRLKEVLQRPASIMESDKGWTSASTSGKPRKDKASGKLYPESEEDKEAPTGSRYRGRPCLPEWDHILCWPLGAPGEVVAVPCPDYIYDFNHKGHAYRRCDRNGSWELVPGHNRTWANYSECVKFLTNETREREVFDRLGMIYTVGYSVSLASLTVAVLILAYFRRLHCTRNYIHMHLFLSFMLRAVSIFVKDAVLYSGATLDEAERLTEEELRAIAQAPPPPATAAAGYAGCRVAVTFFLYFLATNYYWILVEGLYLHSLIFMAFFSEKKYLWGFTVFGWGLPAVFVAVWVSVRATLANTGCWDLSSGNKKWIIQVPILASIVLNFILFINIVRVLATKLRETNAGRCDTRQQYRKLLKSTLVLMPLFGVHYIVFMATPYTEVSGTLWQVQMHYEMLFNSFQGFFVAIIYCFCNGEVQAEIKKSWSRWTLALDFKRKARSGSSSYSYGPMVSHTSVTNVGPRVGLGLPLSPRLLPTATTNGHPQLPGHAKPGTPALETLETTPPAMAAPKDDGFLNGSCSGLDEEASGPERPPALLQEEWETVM
# PROCEDURE DETAILS: Competition binding in intact HKRK-B7 cells with 125I-PTH(1-34) tracer
# CONDITION NOTES: hPTH(1-31)NH2 analogs; intact HKRK-B7 cells, 125I-[Nle8,21,Tyr34]ratPTH(1-34)NH2 tracer; read-out: PTHR-WT (HKRK-B7 cells) IC50
pIC50: −log10 of the molar value. Where no end group is shown, it is not given here.
MEASURE NAME: pIC50

>>> reported("SVSEIQLMHNLGKHLNSMARVEWLRKKLQDV-NH2 [Glu^19→Ala]")
7.31
>>> reported("SVSEIQLMHNLGKHLNSMERVEWLRAKLQDV-NH2 [Lys^26→Ala]")
6.90
>>> reported("SVSEIQLMHNLGKHLNSMRRVAWLRKKLQDV-NH2 [Glu^19,22→Arg,Ala]")
7.27
>>> reported("SVSEIQLMHNLGKHLNSMARVAWLRKKLQDV-NH2 [Glu^19,22→Ala,Ala]")
7.31
